tested on: SF-268 CNS; test: NCI tumour cell line growth inhibition, 48 h
In this section, each of the compounds is paired with its reported TGI.

Under SF-268 CNS, report TGI for C[n+]1c(-c2ccc(/C=N/NC(=N)N/N=C/c3ccc(-c4cn5cc(Cl)ccc5[n+]4C)cc3)cc2)cn2cc(Cl)ccc21 > 100 µM

Under SF-268 CNS, report TGI for Cc1nc(C)c(C(=O)NNC(N)=S)cc1C(=O)NNC(N)=S > 100 µM

Under SF-268 CNS, report TGI for COC(=O)[C@@H](C)C[C@H](Cc1ccccc1)NC(=O)c1csc(CC[C@H](C(C)C)N(C)C(=O)[C@@H](NC(=O)[C@H]2CCCCN2C)C(C)C)n1 > 33.3 µM

Please turn your attention to the following entry.
Under SF-268 CNS, report TGI for S=C(NC1=NCC(CN2CCN(c3ccccc3)CC2)O1)Nc1ccccc1 (centres undefined) > 100 µM
